Biological target: KRAS G12C (Homo sapiens (Human), UniProt P01116+P62937, G12C)
Sequence (P01116-2 other isoform, or with tags, fused parts or gaps G12C, one chain of several): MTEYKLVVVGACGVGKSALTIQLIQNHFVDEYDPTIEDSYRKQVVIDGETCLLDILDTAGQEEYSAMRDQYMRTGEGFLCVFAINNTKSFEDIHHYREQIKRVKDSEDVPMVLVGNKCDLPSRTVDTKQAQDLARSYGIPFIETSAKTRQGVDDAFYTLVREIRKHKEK
Experiment: Ras-Raf disruption/FRET/MOA assay (BRAF RBD, Cyclophilin A)
Assay type: biochemical
Conditions: read-out: KRAS G12C FRET IC50
Experimental: Compound is present in plate wells as a 10-point 3-fold dilution series starting at a final concentration of 30 μM. After incubation at 25° C. for 3 hours, a mixture of Anti-His Eu—W1024 and anti-GST allophycocyanin is then added to assay sample wells at final concentrations of 10 nM and 50 nM, respectively, and the reaction incubated for an additional 1.5 hours. […]

Smiles representation	IC50
CCn1c(-c2cccnc2[C@H](C)OC)c2c3cc(ccc31)-c1csc(n1)C[C@H](NC(=O)[C@H](C(C)C)N(C)C(=O)N(C)C1(C)COC1)C(=O)N1CCC[C@H](N1)C(=O)OCC(C)(C)C2	100 to 1000 nM
CCn1c(-c2cccnc2[C@H](C)OC)c2c3cc(ccc31)-c1csc(n1)C[C@H](NC(=O)[C@H](C(C)C)N(C)C(=O)N1CCN3C(=O)CN(C)C[C@H]3C1)C(=O)N1CCC[C@H](N1)C(=O)OCC(C)(C)C2	10 to 100 nM

---

Target: NRAS WT (Homo sapiens (Human), UniProt P01111+P62937)
Sequence (P01111 whole entry): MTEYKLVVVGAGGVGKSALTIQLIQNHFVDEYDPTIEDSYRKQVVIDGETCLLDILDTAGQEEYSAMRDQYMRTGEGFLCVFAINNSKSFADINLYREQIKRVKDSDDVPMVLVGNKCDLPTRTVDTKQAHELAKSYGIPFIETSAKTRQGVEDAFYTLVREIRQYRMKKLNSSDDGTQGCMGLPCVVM
Sequence (P62937 whole entry): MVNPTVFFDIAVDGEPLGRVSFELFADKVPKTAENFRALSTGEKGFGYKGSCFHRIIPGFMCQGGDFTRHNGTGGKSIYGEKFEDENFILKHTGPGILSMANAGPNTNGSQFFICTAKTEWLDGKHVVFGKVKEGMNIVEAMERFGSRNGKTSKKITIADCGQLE
Experiment: Ras-Raf disruption/FRET/MOA assay (BRAF RBD, Cyclophilin A)
Format: biochemical
Experimental: Compound is present in plate wells as a 10-point 3-fold dilution series starting at a final concentration of 30 μM. After incubation at 25° C. for 3 hours, a mixture of Anti-His Eu—W1024 and anti-GST allophycocyanin is then added to assay sample wells at final concentrations of 10 nM and 50 nM, respectively, and the reaction incubated for an additional 1.5 hours. […]

Molecule	IC50
CCn1c(-c2cccnc2[C@H](C)OC)c2c3cc(ccc31)-c1cc(O)cc(c1)C[C@H](NC(=O)[C@@H]1[C@H]3C[C@H]3CN1C(C)=O)C(=O)N1CCC[C@H](N1)C(=O)OCC(C)(C)C2	1000 to 10000 nM
CCn1c(-c2cccnc2[C@H](C)OC)c2c3cc(ccc31)-c1csc(n1)C[C@H](NC(=O)[C@H](C(C)C)N(C)C(=O)[C@@H]1OCC[C@@H]1c1ccccc1)C(=O)N1CCC[C@H](N1)C(=O)OCC(C)(C)C2	100 to 1000 nM
CCn1c(-c2cccnc2[C@H](C)OC)c2c3cc(ccc31)-c1cc(O)cc(c1)C[C@H](NC(=O)[C@H](C(C)C)N(C)C(=O)[C@@H]1OCC[C@@H]1c1ccccc1)C(=O)N1CCC[C@H](N1)C(=O)OCC(C)(C)C2	10 to 100 nM
CCn1c(-c2cccnc2[C@H](C)OC)c2c3cc(ccc31)-c1csc(n1)C[C@H](NC(=O)[C@H](C(C)C)N(C)C(=O)N1C[C@@H]3[C@@H](C1)OCCN3C)C(=O)N1CCC[C@H](N1)C(=O)OCC(C)(C)C2	100 to 1000 nM
CCn1c(-c2cccnc2[C@H](C)OC)c2c3cc(ccc31)-c1csc(n1)C[C@H](NC(=O)[C@H](C(C)C)N(C)C(=O)N1CC(C(=O)O)C1)C(=O)N1CCC[C@H](N1)C(=O)OCC(C)(C)C2	100 to 1000 nM
CCn1c(-c2cccnc2[C@H](C)OC)c2c3cc(ccc31)-c1cc(O)cc(c1)C[C@H](NC(=O)[C@H](C(C)C)N(C)C(=O)N1CC(N(C)C)C1)C(=O)N1CCC[C@H](N1)C(=O)OCC(C)(C)C2	100 to 1000 nM
CCn1c(-c2cc(N3CCN(C)CC3)cnc2[C@H](C)OC)c2c3cc(ccc31)-c1csc(n1)C[C@H](NC(=O)[C@H](C(C)C)N(C)C(=O)C1OCC[C@@H]1c1ccccc1)C(=O)N1CCC[C@H](N1)C(=O)OCC(C)(C)C2 (stereo partly drawn)	100 to 1000 nM
CCn1c(-c2cccnc2[C@H](C)OC)c2c3cc(ccc31)-c1cc(O)cc(c1)C[C@H](NC(=O)C(C)C1CCOCC1)C(=O)N1CCC[C@H](N1)C(=O)OCC(C)(C)C2 (stereo partly drawn)	100 to 1000 nM
CCn1c(-c2cccnc2[C@H](C)OC)c2c3cc(ccc31)-c1csc(n1)C[C@H](NC(=O)[C@H](C(C)C)N(C)C(=O)N1CC3(CCN(C)C3)C1)C(=O)N1CCC[C@H](N1)C(=O)OCC(C)(C)C2	100 to 1000 nM

---

Molecular target: NRAS G12C (Homo sapiens (Human), UniProt P01111+P62937, G12C)
Sequence (P01111 whole entry G12C, one chain of several): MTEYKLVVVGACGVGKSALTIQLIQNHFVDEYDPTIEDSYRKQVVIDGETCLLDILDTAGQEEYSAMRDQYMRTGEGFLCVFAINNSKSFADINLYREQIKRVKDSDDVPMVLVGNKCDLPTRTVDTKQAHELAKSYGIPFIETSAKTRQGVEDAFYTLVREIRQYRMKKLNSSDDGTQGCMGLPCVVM
Assay: Ras-Raf disruption/FRET/MOA assay (BRAF RBD, Cyclophilin A)
Format: biochemical
Settings: read-out: NRAS G12C FRET data IC50

Compound	System name	IC50
CCn1c(-c2cccnc2[C@H](C)OC)c2c3cc(ccc31)-c1csc(n1)C[C@H](NC(=O)[C@H](C(C)C)N(C)C(=O)N1C3COCC1C3)C(=O)N1CCC[C@H](N1)C(=O)OCC(C)(C)C2 [Compound A540]	NRAS G12C (Homo sapiens (Human), UniProt P01111+P62937, G12C)	0.01 to 0.1 µM
CCn1c(-c2cccnc2[C@H](C)OC)c2c3cc(ccc31)-c1cc(O)cc(c1)C[C@H](NC(=O)[C@H](C(C)C)N(C)C(=O)[C@H]1CCN(C(=O)CCc3ccccc3)C1)C(=O)N1CCC[C@H](N1)C(=O)OCC(C)(C)C2 [Compound A201]	NRAS G12C (Homo sapiens (Human), UniProt P01111+P62937, G12C)	0.01 to 0.1 µM

---

Target: K-Ras G12C(GMP-PNP) binding to BRAF RBD (Homo sapiens (Human), UniProt P01116+P62937, G12C)
Sequence (P01116 other isoform, or with tags, fused parts or gaps G12C, one chain of several): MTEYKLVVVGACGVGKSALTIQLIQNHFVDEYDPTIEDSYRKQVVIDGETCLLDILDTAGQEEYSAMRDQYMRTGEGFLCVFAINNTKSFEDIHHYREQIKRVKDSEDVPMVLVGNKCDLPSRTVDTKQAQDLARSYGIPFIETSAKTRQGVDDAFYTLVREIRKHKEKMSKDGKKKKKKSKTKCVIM
Assay: Disruption of BRAF RBD interaction with K-Ras (FRET / MOA assay), K-Ras G12C
Type: biochemical
Conditions: read-out: KRAS G12C FRET IC50
Parameter: IC50

Smiles representation	Value
CCn1c(-c2cccnc2[C@H](C)OC)c2c3cc(ccc31)-c1csc(n1)C[C@H](NC(=O)[C@H](C(C)C)N(C)C(=O)N1CCN3C(=O)CN(C)C[C@H]3C1)C(=O)N1CCC[C@H](N1)C(=O)OCC(C)(C)C2	10 to 100 nM
CCn1c(-c2cccnc2[C@H](C)OC)c2c3cc(ccc31)-c1cc(O)cc(c1)C[C@H](NC(=O)C(=C(C)C)N(C)C(C)=O)C(=O)N1CCC[C@H](N1)C(=O)OCC(C)(C)C2	10 to 100 nM
CCn1c(-c2cccnc2[C@H](C)OC)c2c3cc(ccc31)-c1cc(O)cc(c1)C[C@H](NC(=O)[C@H](C(C)C)N(C)C(=O)[C@H]1CN[C@@H]3CCO[C@H]13)C(=O)N1CCC[C@H](N1)C(=O)OCC(C)(C)C2	> 10000 nM
CCn1c(-c2cccnc2[C@H](C)OC)c2c3cc(ccc31)-c1cccc(c1)C[C@H](NC(=O)[C@H](C(C)C)N(C)C(=O)[C@H]1CCN(C(=O)C#C[C@@H]3CC(F)(F)CN3C)C1)C(=O)N1CCC[C@H](N1)C(=O)OCC(C)(C)C2	10 to 100 nM

---

Biological target: KRAS WT (Homo sapiens (Human), UniProt P01116+P62937)
Sequence (P01116 other isoform, or with tags, fused parts or gaps): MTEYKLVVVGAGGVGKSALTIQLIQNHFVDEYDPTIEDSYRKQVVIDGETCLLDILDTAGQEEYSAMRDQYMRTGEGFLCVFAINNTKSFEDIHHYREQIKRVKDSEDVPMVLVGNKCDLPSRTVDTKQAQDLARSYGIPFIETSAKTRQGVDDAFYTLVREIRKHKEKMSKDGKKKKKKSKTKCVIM
Sequence (P62937 whole entry): as the sequence (P62937 whole entry) above
Experiment: Ras-Raf disruption/FRET/MOA assay (BRAF RBD, Cyclophilin A)
Format: biochemical
Details: read-out: KRAS WT FRET data IC50
Parameter: IC50

Compound	Parameter	Value
CCn1c(-c2cccnc2[C@H](C)OC)c2c3cc(ccc31)-c1csc(n1)C[C@H](NC(=O)[C@H](C(C)C)N(C)C(=O)N1CC(O)(CN(C)C)C1)C(=O)N1CCC[C@H](N1)C(=O)OCC(C)(C)C2 [Compound A597]	IC50	100 to 1000 nM
CCn1c(-c2cc(N3CCN(C)CC3)cnc2[C@H](C)OC)c2c3cc(ccc31)-c1csc(n1)C[C@H](NC(=O)[C@H](C(C)C)N(C)C(=O)[C@H]1CCCS1(=O)=O)C(=O)N1CCC[C@H](N1)C(=O)OCC(C)(C)C2 [Compound A439]	IC50	100 to 1000 nM
CCn1c(-c2cnccc2COC)c2c3cc(ccc31)-c1cc(O)cc(c1)C[C@H](NC(=O)[C@H](C(C)C)N(C)C(=O)[C@H]1CCCN1C)C(=O)N1CCC[C@H](N1)C(=O)OCC(C)(C)C2 [Compound A83]	IC50	100 to 1000 nM
CCn1c(-c2cccnc2[C@H](C)OC)c2c3cc(ccc31)-c1csc(n1)C[C@H](NC(=O)[C@H](C(C)C)N(C)C(=O)N1CC3(CC(N(C)C(C)C)C3)C1)C(=O)N1CCC[C@H](N1)C(=O)OCC(C)(C)C2 [Compound A485]	IC50	100 to 1000 nM
CCn1c(-c2cccnc2[C@H](C)OC)c2c3cc(ccc31)-c1csc(n1)C[C@H](NC(=O)[C@H](C(C)C)N(C)C(=O)N(C)N(C)C)C(=O)N1CCC[C@H](N1)C(=O)OCC(C)(C)C2 [Compound A454]	IC50	10 to 100 nM

Entry source: patent US20250195521A1
